Give OD450 for every item shown.
- Target System: Peptide 5: Biotin-…-[Tyr(PC)]-acid
- Sequence (peptide, as listed by the source): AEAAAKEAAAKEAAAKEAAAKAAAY
- Procedure Summary: scFv ELISA
One number for each entry, in OD450.

Reference set, count: 4
PcOxP_DB01_D09 (scFv, V domains shown, scFv in periplasmic extract) VH: EVQLLESGGGLVQPGGSLRLSCAASGFTESDFYMEWVRQAPGKGLEWVAASRNKANDYTTEYADSVKGRFTISRDNSKNTLYLQMNSLRAEDTAVYYCARDYYGSSYWYFDVWGQGTLVTVSS VL: DIQMTQSPSSLSASVGDRVTITCTASESLYSAKHKVHYLAWYQQKPGKAPKLLIYGSSNRYIGVPSRFSGSGSGTDFTLTISSLQPEDFATYYCAQFYDYPLTFGGGTKVEIK : 0.66
PcOxP_DB03_C11 (scFv, V domains shown, scFv in periplasmic extract) VH: EVQLLESGGGLVQPGGSLRLSCAASGFDFSDFYMEWVRQAPGKGLEWVAASRNKANDYTTDYADSVKGRFTISRDNSKNTLYLQMNSLRAEDTAVYYCARDYFGSSYWYFDVWGQGTLVTVSS VL: DIQMTQSPSSLSASVGDRVTITCTASESLYSSKHKVHYLAWYQQKPGKAPKLLIYGASNRYQGVPSRFSGSGSGTDFTLTISSLQPEDFATYYCAQFYFYPLTFGGGTKVEIK : 0.75
PcOxP_DB02_F11 (scFv, V domains shown, scFv in periplasmic extract) VH: EVQLLESGGGLVQPGGSLRLSCAASGTTFSDFYMEWVRQAPGKGLEWVAASRNKYNDYTTEYADSVKGRFTISRDNSKNTLYLQMNSLRAEDTAVYYCARDYYGSSYWYFDVWGQGTLVTVSS VL: DIVMTQSPDSLAVSLGERATINCTASESLYSSKHKVHYLAWYQQKPGQPPKLLIYGASNRYPGVPDRFSGSGSGTDFTLTISSLQAEDVAVYYCAQFYSYPLTFGGGTKVEIK : 0.66
PcOxP_DB04_G01 (scFv, V domains shown, scFv in periplasmic extract) VH: EVQLLESGGGLVQPGGSLRLSCAASGFTFSDYYMEWVRQAPGKGLEWVAASRNKWNDYTTEYADSVKGRFTISRDNSKNTLYLQMNSLRAEDTAVYYCARDYYLSSYWYFDVWGQGTLVTVSS VL: DIVMTQSPDSLAVSLGERATINCKASQSVLSSKNNVNYLAWYQQKPGQPPKLLIYGASNRYIGVPDRFSGSGSGTDFTLTISSLQAEDVAVYYCAQFYQYPLTFGGGTKVEIK : 1.39

# ---- query binder ----
Query (binder): PcOxP_DB01_B12 (scFv, V domains shown, scFv in periplasmic extract) VH: EVQLLESGGGLVQPGGSLRLSCAASGFTFSSYYMEWVRQAPGKGLEWVAASRNKGNSYTTEYADSVKGRFTISRDNSKNTLYLQMNSLRAEDTAVYYCARDYYGSSYWYFDVWGQGTLVTVSS VL: DIVMTQSPDSLAVSLGERATINCTASESLYSSKHKVHYLAWYQQKPGQPPKLLIYGASNRYIGVPDRFSGSGSGTDFTLTISSLQAEDVAVYYCGQFYSYPLTFGGGTKVEIK ; field requested: OD450 1.19
